- Tested on: COLO 205
- RUN_DESCRIPTION: NCI tumour cell line growth inhibition, 48 h
The source made the active and inactive calls. Rule as the data show it: active = GI50 up to about 1.1 µM and inactive = higher.
Quick reference: GI50 of the listed items.

>>> recorded_value("CCOC(=O)C1(C(=O)OCC)CCCN1C(=O)[C@H](CNC(=O)OC(C)(C)C)NC(=O)OCc1ccccc1")
"> 100 µM (inactive)"
>>> recorded_value("CN(C(=O)c1ccc2c(c1)sc1c(=O)n(C)c3ccccc3c12)c1ccccc1")
"> 100 µM (inactive)"
>>> recorded_value("O=C1NC(c2cccc3ccccc23)Nc2ccc(O)cc21 (stereo not given)")
"34.1 µM (inactive)"

Query: Query the reported GI50 for COLO 205; item: O=C(O)C1C2CCC(O2)C1C(=O)N1CCCCC1 (stereo not given)
Result: 1.95 µM (inactive)

Query: Subsequent entry: COc1ccc2c(c1)c1c3n2CCNN=C3CCC1
Result: > 91 µM (inactive)
